- System: SW480 pERK
- experiment.description: Phospho-ERK inhibition, AlphaLISA SureFire Ultra p-ERK 1/2
- Assay type: cell-based, human
- details: Table 3; lowest value of the pERK IC50 curve
property.name: SW480 (Ymin %)
Write down the numeric answer in % and omit the unit.

// worked examples, SW480 (Ymin %) included
| compound | assay.target | SW480 (Ymin %) |
| --- | --- | --- |
| COc1ccc(S(=O)(=O)Nc2ccc(F)c(Nc3ncnc4cnc(N5CC[C@H](F)C5)nc34)c2F)c(F)c1 [Example 44] | SW480 pERK | 12 |
| COc1ccc(S(=O)(=O)Nc2ccc(F)c(Nc3ncnc4cnc(-n5cnc6c(N)cccc65)nc34)c2F)c(F)c1 [Example 79] | SW480 pERK | −2 |
| COc1ccc(S(=O)(=O)Nc2ccc(F)c(Nc3ncnc4cnc(N5CC[C@H](F)C5)nc34)c2F)cc1 [Example 31] | SW480 pERK | 11 |
| COc1ccc(S(=O)(=O)Nc2ccc(F)c(Nc3ncnc4cnc(-n5cnc6c(N)cccc65)nc34)c2F)c(C)c1Cl [Example 112] | SW480 pERK | −7 |
| COc1ccc(S(=O)(=O)Nc2ccc(F)c(Nc3ncnc4cnc(N5CC(F)C5)nc34)c2F)c(F)c1 [Example 52] | SW480 pERK | −8 |

I am curious: what SW480 (Ymin %) value has been reported for COc1ccc(S(=O)(=O)Nc2ccc(F)c(Nc3ncnc4cnc(N5CC[C@@H](F)C5)nc34)c2F)cc1 [Example 38] ?
−3

Would you kindly repeat that for COc1ccc(S(=O)(=O)Nc2ccc(F)c(Nc3ncnc4cnc(-n5cc(C)nc5C)nc34)c2F)cc1 [Example 37] ?
−6

---

- System: HCT116 pERK
- experiment.description: Phospho-ERK inhibition, AlphaLISA SureFire Ultra p-ERK 1/2
- Format: cell-based, human
- details: Table 2; 1 h treatment
- Procedure: All cancer cell lines (A375, A101D, A2058, RKO, HT29 SK-MEL 30, IPC298, HepG2, HCT-116, Lovo, SW620, SW480, NCI-H358, NCI-H2122, Calu-6, NCIH2087, NCIH1755, NCIH1666 and Mewo) were obtained from ATCC and cultured in RPMI-1640 medium (Gibco) supplemented with 5% heat inactivated fetal bovine serum (FBS, Wisent) at 37° C. under 5% CO2. Cells were maintained in T175 flasks (Greiner). […] The effect of each compound dilution on the pERK signal was expressed in % inhibition and calculated as follows. […]
pIC50: −log10 of the molar value.
property.name: pIC50

Below: 3 compounds and their reported pIC50.
| compound.smiles | property.name | assay.value |
| --- | --- | --- |
| COc1ccc(S(=O)(=O)Nc2ccc(F)c(Nc3ncnc4cnc(SC)nc34)c2F)cc1OC | pIC50 | 5.00 to 6.00 |
| CSc1ncc2ncnc(Nc3c(F)ccc(NS(=O)(=O)N4CCC(F)(F)C4)c3F)c2n1 | pIC50 | 4.52 to 5.00 |
| CSc1ncc2ncnc(Nc3c(F)ccc(NS(=O)(=O)c4ccc(Br)cc4F)c3F)c2n1 | pIC50 | 4.52 to 5.00 |

Given the compound "COc1ccc(S(=O)(=O)Nc2ccc(F)c(Nc3ncnc4cnc(SC)nc34)c2F)c(C)c1F" , what is its reported pIC50?
5.00 to 6.00

---

- assay.target: BRAF (Homo sapiens)
- Construct: GST; purchased Millipore Sigma B4062-10UG
- experiment.description: BRAF kinase activity assay (ADP-Glo)
- Format: biochemical
- details: Table 3
pIC50: −log10 of the molar value.
property.name: pIC50

Take a look at these entries with their results.
| compound.smiles | pIC50 |
| --- | --- |
| CCC1(O)CCN(c2cccc3c2ncn3-c2ncc3ncnc(Nc4c(F)ccc(NS(=O)(=O)c5ccc(F)c(F)c5C)c4F)c3n2)CC1 | 8.00 to 9.00 |
| Cc1c(F)cccc1S(=O)(=O)Nc1ccc(F)c(Nc2ncnc3cnc(-n4cc(C(=O)N5CCOCC5)c5ccccc54)nc23)c1F | > 9.00 |
| Cc1c(F)cccc1S(=O)(=O)Nc1ccc(F)c(Nc2ncnc3cnc(-n4cc(S(=O)(=O)N(C)Cc5ccncc5)c5ccccc54)nc23)c1F | 8.00 to 9.00 |
| Cc1c(F)cccc1S(=O)(=O)Nc1ccc(F)c(Nc2ncnc3cnc(-n4cc(C(=O)N(C)C)c5ccccc54)nc23)c1F | > 9.00 |
| N#CC1(c2cccc3c2nnn3-c2ncc3ncnc(Nc4c(F)ccc(NS(=O)(=O)c5cccc(Cl)c5Cl)c4F)c3n2)CC1 | 8.00 to 9.00 |
| CCc1ccccc1S(=O)(=O)Nc1ccc(F)c(Nc2ncnc3cnc(-n4cnc5ccccc54)nc23)c1F | < 8.00 |
| O=S(=O)(Nc1ccc(F)c(Nc2ncnc3cnc(-n4cnc5c(N6CCN(CCO)CC6)cccc54)nc23)c1F)c1cccc(Cl)c1Cl | > 9.00 |
| CCC1(O)CCN(c2cccc3c2ncn3-c2ncc3ncnc(Nc4c(F)ccc(NS(=O)(=O)c5cccc6c5OC(F)(F)O6)c4F)c3n2)CC1 | 8.00 to 9.00 |

Find the recorded pIC50 belonging to "Cc1c(S(=O)(=O)Nc2ccc(F)c(Nc3ncnc4cnc(-n5cnc6ccccc65)nc34)c2F)ccc(F)c1F" and report it.
8.00 to 9.00

Try this compound too: "N#CC1CCN(c2cccc3c2ncn3-c2ncc3ncnc(Nc4c(F)ccc(NS(=O)(=O)c5cccc(Cl)c5Cl)c4F)c3n2)CC1"
8.00 to 9.00

Proceed to "Cc1c(F)cccc1S(=O)(=O)Nc1ccc(F)c(Nc2ncnc3cnc(-n4cc(S(=O)(=O)N5CCN(C)CC5)c5ccccc54)nc23)c1F"
> 9.00

Now this one: "CCC1(O)CCN(c2cccc3c2ncn3-c2ncc3ncnc(Nc4c(F)ccc(NS(=O)(=O)c5cccc(Cl)c5C(F)(F)F)c4F)c3n2)CC1"
8.00 to 9.00

Now give it for "Cc1c(F)cccc1S(=O)(=O)Nc1ccc(F)c(Nc2ncnc3cnc(-n4nc(C(=O)N5CCOCC5)c5ccccc54)nc23)c1F" too.
> 9.00

---

- Test system: SW480 pERK
- experiment.description: Phospho-ERK inhibition, AlphaLISA SureFire Ultra p-ERK 1/2
- Type: cell-based, human
- details: SW480 cells, pERK; read-out: SW480 PERK IC50
property.name: IC50

Could you tell me which IC50 is on file for COc1ccc(S(=O)(=O)Nc2ccc(F)c(Nc3ncnc4cnc(SC)nc34)c2Cl)cc1 [Example 89] ?
10 to 30 µM

---

// reported pIC50 per item
- assay.target: BRAF (Homo sapiens, UniProt P15056)
- Construct: GST; purchased Millipore Sigma B4062-10UG
- Sequence (P15056 whole entry): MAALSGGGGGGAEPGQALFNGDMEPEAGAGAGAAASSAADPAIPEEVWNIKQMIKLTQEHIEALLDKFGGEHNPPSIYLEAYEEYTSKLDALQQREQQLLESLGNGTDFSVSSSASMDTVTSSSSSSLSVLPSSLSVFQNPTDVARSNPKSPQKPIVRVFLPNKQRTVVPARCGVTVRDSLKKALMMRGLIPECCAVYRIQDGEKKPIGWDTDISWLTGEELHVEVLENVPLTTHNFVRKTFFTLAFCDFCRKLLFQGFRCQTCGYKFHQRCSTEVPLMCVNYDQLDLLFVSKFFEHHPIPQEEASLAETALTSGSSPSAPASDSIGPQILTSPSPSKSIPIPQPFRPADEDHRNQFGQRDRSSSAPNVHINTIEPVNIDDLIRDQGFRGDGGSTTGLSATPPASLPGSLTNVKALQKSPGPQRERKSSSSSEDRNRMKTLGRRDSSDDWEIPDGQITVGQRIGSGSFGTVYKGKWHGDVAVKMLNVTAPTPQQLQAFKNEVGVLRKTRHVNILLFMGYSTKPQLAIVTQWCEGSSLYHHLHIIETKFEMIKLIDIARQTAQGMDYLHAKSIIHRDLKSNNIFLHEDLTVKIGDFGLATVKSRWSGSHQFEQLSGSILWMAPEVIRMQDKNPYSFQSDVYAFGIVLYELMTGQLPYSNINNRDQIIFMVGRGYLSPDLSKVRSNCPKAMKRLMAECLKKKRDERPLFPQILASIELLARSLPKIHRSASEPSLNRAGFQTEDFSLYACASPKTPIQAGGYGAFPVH
- experiment.description: BRAF kinase activity assay (ADP-Glo)
- Format: biochemical
- details: Table 3
pIC50: −log10 of the molar value.

As a guide, the following entries are already answered.
| compound | pIC50 |
| --- | --- |
| CCC1(O)CCN(c2cccc3c2ncn3-c2ncc3ncnc(Nc4c(F)ccc(NS(=O)(=O)c5cccc(Cl)c5Cl)c4F)c3n2)CC1 [Example 133] | 8.00 to 9.00 |
| COc1ccc(S(=O)(=O)Nc2ccc(F)c(Nc3ncnc4cnc(-n5nnc6ccccc65)nc34)c2F)c(C)c1F [Example 118] | < 8.00 |
| Cc1c(Cl)cccc1S(=O)(=O)Nc1ccc(F)c(Nc2ncnc3cnc(-n4cnc5ccccc54)nc23)c1F [Example 127] | 8.00 to 9.00 |

# input compound: Cc1c(F)cccc1S(=O)(=O)Nc1ccc(F)c(Nc2ncnc3cnc(-n4cc(C(=O)N5CCC(O)CC5)c5ccccc54)nc23)c1F [Example 102] ; wanted: its pIC50
> 9.00

And Cc1c(F)cccc1S(=O)(=O)Nc1ccc(F)c(Nc2ncnc3cnc(-n4cc(C(=O)N(C)Cc5ccncc5)c5ccccc54)nc23)c1F [Example 98] ?
> 9.00

How about Nc1cccc2c1ncn2-c1ncc2ncnc(Nc3c(F)ccc(NS(=O)(=O)c4cccc(Cl)c4Cl)c3F)c2n1 [Example 80] ?
> 9.00

Also need O=S(=O)(Cc1ccncc1)c1cn(-c2ncc3ncnc(Nc4c(F)ccc(NS(=O)(=O)c5cccc(Cl)c5Cl)c4F)c3n2)c2ccccc12 [Example 143] , thanks.
8.00 to 9.00

Moving on to the next compound: Cc1c(F)cccc1S(=O)(=O)Nc1ccc(F)c(Nc2ncnc3cnc(-n4cc(C(=O)N(C)CCO)c5ccccc54)nc23)c1F [Example 101]
> 9.00

Then this compound: O=S(=O)(Nc1ccc(F)c(Nc2ncnc3cnc(-n4cnc5ccccc54)nc23)c1F)c1cccc(Cl)c1Cl [Example 81]
> 9.00

Likewise for O=S(=O)(Nc1ccc(F)c(Nc2ncnc3cnc(-n4cnc5ccccc54)nc23)c1F)c1cccc(Cl)c1C(F)(F)F [Example 156] ?
8.00 to 9.00

Try this compound too: Cc1ncn(-c2ncc3ncnc(Nc4c(F)ccc(NS(=O)(=O)c5ccc(Cl)cc5Cl)c4F)c3n2)c1C [Example 62]
8.00 to 9.00

And then Cc1c(F)cccc1S(=O)(=O)Nc1ccc(F)c(Nc2ncnc3cnc(-n4nc(C(=O)N5CCC[C@H](O)C5)c5ccccc54)nc23)c1F [Example 109] , what is it?
> 9.00

Also COCCOc1cccc2c1nnn2-c1ncc2ncnc(Nc3c(F)ccc(NS(=O)(=O)c4cccc(Cl)c4Cl)c3F)c2n1 [Example 137] , if possible.
8.00 to 9.00
